Origin of measurements: patent US9187525B2

- Target or system: T1, natriuretic peptide receptor-B (human)
- T1 chain: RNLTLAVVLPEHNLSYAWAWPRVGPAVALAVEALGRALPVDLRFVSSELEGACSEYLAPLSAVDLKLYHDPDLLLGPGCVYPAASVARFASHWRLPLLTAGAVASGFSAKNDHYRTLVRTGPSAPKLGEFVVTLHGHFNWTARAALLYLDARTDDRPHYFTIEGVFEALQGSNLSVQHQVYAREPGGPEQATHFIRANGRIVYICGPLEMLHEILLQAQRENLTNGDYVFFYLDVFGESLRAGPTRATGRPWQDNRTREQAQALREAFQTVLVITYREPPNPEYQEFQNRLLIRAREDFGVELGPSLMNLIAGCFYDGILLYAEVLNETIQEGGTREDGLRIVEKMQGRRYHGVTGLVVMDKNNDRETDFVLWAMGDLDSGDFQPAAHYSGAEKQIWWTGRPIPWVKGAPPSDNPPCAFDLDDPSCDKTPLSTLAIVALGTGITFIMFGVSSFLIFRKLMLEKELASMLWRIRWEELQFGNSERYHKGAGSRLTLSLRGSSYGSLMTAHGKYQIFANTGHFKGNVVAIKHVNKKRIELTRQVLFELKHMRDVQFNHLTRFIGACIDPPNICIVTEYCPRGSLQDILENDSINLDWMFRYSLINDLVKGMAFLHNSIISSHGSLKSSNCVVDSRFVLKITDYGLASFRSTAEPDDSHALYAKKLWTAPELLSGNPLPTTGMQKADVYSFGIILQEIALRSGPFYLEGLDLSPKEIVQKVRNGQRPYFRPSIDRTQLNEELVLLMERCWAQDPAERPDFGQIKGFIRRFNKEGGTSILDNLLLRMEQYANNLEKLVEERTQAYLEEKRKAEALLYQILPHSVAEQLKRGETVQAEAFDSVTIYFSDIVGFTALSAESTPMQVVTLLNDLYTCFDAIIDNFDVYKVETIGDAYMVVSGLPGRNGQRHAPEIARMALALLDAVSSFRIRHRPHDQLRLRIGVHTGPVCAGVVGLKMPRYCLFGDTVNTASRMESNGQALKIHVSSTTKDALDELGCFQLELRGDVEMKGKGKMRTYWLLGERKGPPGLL
- Test: cell-based or functional assay
Numbered stars: 1 amine (or outer) side, 2 acyl side, 3 side chain; on linkers, the order of the positions; unused ones are H or OH. Square brackets hold non-standard residues; d marks the D form. Ends that are not written are not given here. * marks the point of attachment. 5164 = (S)-3-amino-1-ethylazepan-2-one, CCN1CCCC[C@H](N*)C1=O; 1381 = (S)-3,3-dimethylbutan-2-amine, C[C@H](N*)C(C)(C)C; Sni = (S)-nipecotic acid, O=C([C@H]1CCCN([*:1])C1)[*:2]; Pro(trans-4-F) = O=C(O)[C@@H]1C[C@@H](F)CN1; Hyp = O=C(O)[C@@H]1C[C@@H](O)CN1; NMeL = CN[C@@H](CC(C)C)C(=O)O; AR‑385‑12 = not defined here; orn(Me2) = not defined here; Octanoyl = CCCCCCCC(=O)*; 1860 = not defined here; 4956 = not defined here; Che = not defined here; ala = not defined here; Occ = octanoic acid
Parameter measured: EC50 group, cGMP in GTM-3 cells

Before answering, review these 7 worked examples.
{"columns": ["Binder", "EC50 group, cGMP in GTM-3 cells"],
 "data": [
  ["Octanoyl-AAFGLKLDR[1860] (not fully specified (some residues); printed as Occ-ala-ala-Phe-Gly-Leu-Lys-Leu-Asp-Arg-1860; reading uncertain) [JAL-0789]", "≤ 5 µM"],
  ["Octanoyl-[ala][ala]FGLKLDR-5164 (reading uncertain; also: printed as Occ-ala-ala-Phe-Gly-Leu-Lys-Leu-Asp-Arg-5164) [JAL-0834]", "≤ 15 µM"],
  ["[Occ][Sni]F[orn(Me2)]L[Hyp][NMeL]VP[Che] (reading uncertain; also: printed as Occ-Sni-Phe-orn(Me2)-Leu-Hyp-Nml-Val-Pro-Che) [JAL-1845]", "≤ 5 µM"],
  ["[Occ][Sni]FLL[Hyp][NMeL]DP[1381] (not fully specified (residue 4); printed as Occ-Sni-Phe-leu-Leu-Hyp-Nml-Asp-Pro-1381) [JAL-1509]", "≤ 5 µM"],
  ["4956-AFGLKLDRI-NH2 (not fully specified (some residues); printed as 4956-ala-Phe-Gly-Leu-Lys-Leu-Asp-Arg-Ile-NH2; reading uncertain) [JAL-0788]", "≤ 15 µM"],
  ["[Occ][Sni]F[AR‑385‑12]L[Hyp][NMeL]DRI-NH2 (reading uncertain; also: printed as Occ-Sni-Phe-(AR-385-12)-Leu-Hyp-Nml-Asp-Arg-Ile-NH2) [JAL-1877]", "≤ 1 µM"],
  ["Octanoyl-[dA]FGL[Pro(trans-4-F)]LDRI-NH2 [JAL-1115]", "≤ 5 µM"]
]}

query: Quick one: EC50 group, cGMP in GTM-3 cells of Octanoyl-AFGLPIDRI-NH2 (not fully specified (some residues); printed as Occ-ala-Phe-Gly-Leu-Pro-Ile-Asp-Arg-Ile-NH2) [JAL-0894] ?
result: ≤ 15 µM
